Below, each of the molecules is paired with its reported pIC50 value.
Molecular target: METTL3/METTL14 (Homo sapiens, UniProt Q86U44)
Sequence (Q86U44 whole entry, species assumed): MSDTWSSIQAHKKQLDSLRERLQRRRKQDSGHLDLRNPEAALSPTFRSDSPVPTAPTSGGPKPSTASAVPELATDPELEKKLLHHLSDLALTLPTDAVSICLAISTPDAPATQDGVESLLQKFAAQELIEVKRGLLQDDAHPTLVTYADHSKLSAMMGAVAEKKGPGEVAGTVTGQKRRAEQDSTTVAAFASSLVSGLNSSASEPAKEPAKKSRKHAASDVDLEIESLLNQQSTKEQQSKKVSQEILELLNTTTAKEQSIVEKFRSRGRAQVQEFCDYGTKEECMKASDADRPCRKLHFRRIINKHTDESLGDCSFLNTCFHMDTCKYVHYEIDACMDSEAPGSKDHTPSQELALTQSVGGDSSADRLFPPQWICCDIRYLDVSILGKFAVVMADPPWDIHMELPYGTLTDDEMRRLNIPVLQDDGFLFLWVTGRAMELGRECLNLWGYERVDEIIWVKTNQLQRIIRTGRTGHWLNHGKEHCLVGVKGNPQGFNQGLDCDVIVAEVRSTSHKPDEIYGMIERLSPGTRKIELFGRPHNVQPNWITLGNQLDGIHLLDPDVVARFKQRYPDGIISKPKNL
Sequence (Q9HCE5 whole entry partner, species assumed): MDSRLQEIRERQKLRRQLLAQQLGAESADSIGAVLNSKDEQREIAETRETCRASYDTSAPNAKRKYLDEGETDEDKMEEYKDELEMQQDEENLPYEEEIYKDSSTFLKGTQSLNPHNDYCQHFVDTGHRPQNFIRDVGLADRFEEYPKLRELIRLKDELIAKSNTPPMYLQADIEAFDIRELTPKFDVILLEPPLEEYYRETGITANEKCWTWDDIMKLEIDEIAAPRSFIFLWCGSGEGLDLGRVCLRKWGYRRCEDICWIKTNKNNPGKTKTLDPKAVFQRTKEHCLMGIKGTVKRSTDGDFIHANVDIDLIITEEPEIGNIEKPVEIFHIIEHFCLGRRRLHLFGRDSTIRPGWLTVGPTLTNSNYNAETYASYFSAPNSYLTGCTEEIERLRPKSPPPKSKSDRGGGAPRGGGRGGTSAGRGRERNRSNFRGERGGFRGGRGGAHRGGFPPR
Test: METTL3-14 standard enzyme assay (3H-SAM flashplate scintillation)
Settings: METTL3/METTL14 2.5 nM, RNA 100 nM, 3H-SAM 100 nM, 30 min
pIC50: −log10 of the molar value.

// below: answered molecules
## Input // lookup pIC50 for CCc1cc(N2CCN(C)CC2)c2ccc(OCc3cncc(-n4ccc5c(N)ncnc54)c3)cc2n1
## Output > 8.00

## Input Entry under review: Nc1ncnc2c1c([C@@H]1CCCO1)cn2-c1cncc(COc2ccc3ccc(N4CCC4)nc3c2)n1 . Reported pIC50?
## Output > 8.00

## Input pIC50 lookup needed for CCc1cc(N2CCOCC2)c2ccc(OCc3cncc(-n4ccc5c(N)ncnc54)c3)cc2n1 , thanks.
## Output > 8.00

Kindly review the next molecule as well.
## Input Item CCc1cc(C)c2ccc(OCc3cncc(-n4cc([C@@H]5CCCO5)c5c(N)ncnc54)c3)cc2n1 has what recorded pIC50?
## Output 7.00 to 8.00

====

Listing: IC50 of selected molecules
Biological target: METTL3/METTL14 (Homo sapiens)
Test: METTL3-14 standard enzyme assay (3H-SAM flashplate scintillation)
Conditions: METTL3/METTL14 2.5 nM, RNA 100 nM, 3H-SAM 100 nM, 30 min

## Input I am curious: what IC50 value has been reported for CC(=O)c1cn(-c2cncc(COc3ccc4ccc(N5CCC5)nc4c3)c2)c2ncnc(N)c12 ?
## Output < 10 nM

## Input Reported IC50, molecule CNc1ccc2ccc(OCc3cncc(-n4ccc5c(N)ncnc54)n3)cc2n1 : ____
## Output < 10 nM

## Input Which IC50 is reported for this molecule? CCc1cc(NCCOC)c2ccc(OCc3cncc(-n4cc([C@H]5CCCO5)c5c(N)ncnc54)c3)cc2n1
## Output 10 to 100 nM

## Input Field request: IC50 | item: CN(CCO)C(=O)c1ccc(OCc2cncc(-n3cc(-c4ccn(C)n4)c4c(N)ncnc43)c2)cc1N
## Output > 1000 nM

## Input Look up IC50 for this molecule: Cn1ccc(-c2cn(-c3cncc(CNC(=O)Nc4cccc(N5CCC5)n4)c3)c3ncnc(N)c23)n1
## Output > 1000 nM

## Input Sample C=CC(=O)N(CCC(=O)O)c1nc(N)c2ccn(-c3cncc(COc4ccc5ccc(NC)nc5c4)c3)c2n1 — what was its IC50?
## Output > 1000 nM

New cases:
## Input What value of IC50 has been reported for the following molecule? CCc1cc(N(C)CCOC)c2ccc(CCc3cncc(-n4cc(-c5ccn(C)n5)c5c(N)ncnc54)c3)cc2n1
## Output < 10 nM

## Input Which measured IC50 value corresponds to CC(C)c1nc(N)c2ccc(OCc3cncc(-n4ccc5c(N)ncnc54)c3)cc2n1 ?
## Output 10 to 100 nM

## Input # get_value(readout='IC50', item= CCNc1ccc2ccc(OCc3cncc(-n4cc(Cl)c5c(N)ncnc54)c3)cc2n1 )
## Output < 10 nM

## Input Given the molecule CCc1cc(NCCN(C)C)c2c(F)cc(OCc3cncc(-n4cc(-c5ccn(C)n5)c5c(N)ncnc54)c3)cc2n1 , what is its reported IC50?
## Output < 10 nM

## Input Request the reported IC50 associated with CNc1ccc2ccc(OCc3nc(-n4ccc5c(N)ncnc54)cs3)cc2n1
## Output 10 to 100 nM

## Input Quick one: IC50 of CCc1cc(NC)c2ccc(OCc3cncc(-n4cc(-c5ccn(CCOC)n5)c5c(N)ncnc54)c3)cc2n1 ?
## Output < 10 nM

## Input Tell me the measured IC50 of Cn1ccc(-c2cn(-c3cncc(COc4ccc(C(=O)N5CCC(F)(F)CC5)c(N)c4)c3)c3ncnc(N)c23)n1 , please.
## Output > 1000 nM

## Input So what does the record say about IC50 for CNc1ccc2ccc(COc3cncc(-n4ccc5c(N)ncnc54)c3)cc2n1 ?
## Output 10 to 100 nM

## Input Value lookup for IC50; key = Nc1ncnc2c1c(Cl)cn2-c1cncc(COc2ccc3ccc(N4CCCC4)nc3c2)c1
## Output 10 to 100 nM

====

Molecular target: METTL3/METTL14 (Homo sapiens, UniProt Q86U44)
Test: METTL3-14 standard enzyme assay (3H-SAM flashplate scintillation)
Conditions: METTL3/METTL14 2.5 nM, RNA 100 nM, 3H-SAM 100 nM, 30 min
pIC50: −log10 of the molar value.
readoutType: pIC50

In the examples that follow, each entry is paired with its recorded pIC50.
## Input Requested field: pIC50. Item: CNc1ccc2ccc(OCc3cncc(-c4c[nH]c5c(N)ncnc45)c3)cc2n1 [Compound I-47]
## Output > 8.00

## Input I am curious: what pIC50 value has been reported for CCc1cc(N2CCNCC2)c2ccc(OCc3cncc(-n4cc(-c5ccn(C)n5)c5c(N)ncnc54)c3)cc2n1 [Compound I-121] ?
## Output > 8.00

## Input Any idea what pIC50 was measured for CCc1cc(NCCCN(C)C)c2ccc(OCc3cncc(-n4cc(-c5ccn(C)n5)c5c(N)ncnc54)c3)cc2n1 [Compound I-170] ?
## Output > 8.00

## Input GET /values?readout=pIC50&item= CC(C)Nc1ccc2ccc(OCc3cncc(-n4cc(Cl)c5c(N)ncnc54)c3)cc2n1 [Compound I-39]
## Output 7.00 to 8.00

## Input # input compound: Cc1cc(N)c2ccc(OCc3cccc(-n4cc(Cl)c5c(N)ncnc54)c3)cc2n1 [Compound I-65] ; wanted: its pIC50
## Output 7.00 to 8.00

More entries:
## Input Consider the compound CCc1cc(N2CCOCC2)c2ccc(OCc3cncc(-n4cc([C@@H]5CCCO5)c5c(N)ncnc54)c3)cc2n1 [Compound I-143] and give its measured pIC50.
## Output > 8.00

## Input State the recorded pIC50 for this entry: Nc1cc(OCc2cncc(-n3cc([C@@H]4CCCO4)c4c(N)ncnc43)c2)ccc1C(=O)N1CCNCC1 [Compound I-166]
## Output 6.00 to 7.00

====

Test system: MOLM-13 cells
Assay: MOLM-13 96 Hour cell proliferation assay (Cell Titer-Glo)
Type: cell-based
Conditions: Homo sapiens
readoutType: IC50

Would you please look over these solved cases?
## Input Give its IC50 value. Item: CCc1cc(NCCOC)c2c(F)cc(OCc3cncc(-n4cc(-c5ccn(C)n5)c5c(N)ncnc54)c3)cc2n1
## Output < 1000 nM

## Input Please look up its IC50: Nc1ncnc2c1c([C@H]1CCCO1)cn2-c1cncc(COc2ccc3ccc(N4CCC4)nc3c2)c1
## Output < 1000 nM

## Input Which IC50 value belongs to Nc1ncnc2c1c([C@@H]1CCCO1)cn2-c1cncc(COc2ccc3ccc(N4CCC4)nc3c2)c1 ?
## Output < 1000 nM

## Input What value of IC50 has been reported for the following molecule? CNc1ccc2ccc(OCc3cccc(-n4cc(Cl)c5c(N)ncnc54)c3)cc2n1
## Output 1000 to 10000 nM

## Input Recorded IC50 of CNc1ccc2ccc(OCc3cncc(-n4cc(C5CCCO5)c5c(N)ncnc54)c3)cc2n1 (centres unmarked) , please.
## Output < 1000 nM

## Input What does the data say about its IC50? Entry: CCc1cc(N2CCN(C)CC2)c2ccc(OCc3cncc(-n4ccc5c(N)ncnc54)c3)cc2n1
## Output < 1000 nM

## Input What does the record list as IC50 for CCc1cc(NCCOC)c2ccc(OCc3cncc(-n4cc(COC)c5c(N)ncnc54)c3)cc2n1 ?
## Output < 1000 nM

## Input Item under review: Nc1nc2cc(OCc3cncc(-n4ccc5c(N)ncnc54)c3)ccc2cc1Br . Reported IC50?
## Output ≥ 10000 nM

## Input Which IC50 is reported for this molecule? CC(=O)c1cn(-c2cncc(COc3ccc4ccc(N5CCC5)nc4c3)c2)c2ncnc(N)c12
## Output ≥ 10000 nM

## Input Need IC50 of CCNc1ccc2ccc(CCc3cncc(-n4cc(-c5ccn(C)n5)c5c(N)ncnc54)c3)cc2n1 , thanks.
## Output < 1000 nM

New cases:
## Input Find the recorded IC50 belonging to CCc1cc(N(C)CCN(C)C)c2ccc(CCc3cncc(-n4cc(-c5ccn(C)n5)c5c(N)ncnc54)c3)cc2n1 and report it.
## Output < 1000 nM

## Input // lookup IC50 for CCc1cc(NCCCN(C)C)c2ccc(OCc3cncc(-n4cc(-c5ccn(C)n5)c5c(N)ncnc54)c3)cc2n1
## Output < 1000 nM

## Input // IC50 lookup, key: CCc1cc(NC)c2ccc(OCc3cncc(-n4cc(-c5ccn(CCOC)n5)c5c(N)ncnc54)c3)cc2n1
## Output < 1000 nM

## Input Item under review: CCc1cc(N2CCOCC2)c2ncc(OCc3cncc(-n4cc(-c5ccn(C)n5)c5c(N)ncnc54)c3)cc2n1 . Reported IC50?
## Output < 1000 nM

## Input Consider the molecule shown here: CCc1cc(N(C)CCOC)c2ccc(CCc3cncc(-n4cc(-c5ccn(C)n5)c5c(N)ncnc54)c3)cc2n1 What is its recorded IC50?
## Output < 1000 nM

## Input I have this molecule here, CCc1cc(NCCOC)c2ncc(OCc3cncc(-n4cc(-c5ccn(C)n5)c5c(N)ncnc54)c3)cc2n1 , and I need its recorded IC50.
## Output < 1000 nM

## Input Give the measured IC50 of CCc1cc(N2CCCC2)c2ccc(OCc3cncc(-n4ccc5c(N)ncnc54)c3)cc2n1 .
## Output < 1000 nM

## Input Using the record for CCc1cc(NCCOC)c2ccc(CCc3cncc(-n4cc(-c5ccn(C)n5)c5c(N)ncnc54)c3)cc2n1 , report its IC50.
## Output < 1000 nM

## Input What value of measured IC50 is listed for CNc1ccc2ccc(OCc3cncc(-n4cc(-c5ccc(CNCCS(C)(=O)=O)o5)c5c(N)ncnc54)c3)cc2n1 ?
## Output 1000 to 10000 nM

## Input Can you share its IC50? I mean this molecule: CNc1ccc2ccc(OCc3cncc(-n4cc(Cl)c5c(N)ncnc54)c3)cc2n1
## Output 1000 to 10000 nM

## Input GET /values?readout=IC50&item= CNc1ccc2ccc(OCc3cncc(-n4cc(C(C)C5CC5)c5c(N)ncnc54)c3)cc2n1 (centres unmarked)
## Output 1000 to 10000 nM

## Input Would you mind telling me what IC50 value was observed for CCc1cc(NC)c2ccc(CCc3cncc(-n4cc(-c5ccn(C)n5)c5c(N)ncnc54)c3)cc2n1 ?
## Output < 1000 nM

## Input So what's the measured IC50 for this one? CCc1cc(N(C)CC2CC2)c2ccc(OCc3cncc(-n4cc(-c5ccn(C)n5)c5c(N)ncnc54)c3)cc2n1
## Output < 1000 nM
